Organism: Rattus norvegicus
method-summary: Open TG-GATES - Regimen: Single
Type: toxicity, organism-based, Sprague-Dawley
Design: regimen Single, gender Male, age 6 weeks
measurement-setup: in vivo, po, 300 mg/kg, 9 h, tissue Blood, route gavage, dose level Middle
measured-attribute: MCHC (%)
Give the value in % but do not write % after it.

Below are worked cases with known answers.
{"compound": "COc1ccc2[nH]c([S+]([O-])Cc3ncc(C)c(OC)c3C)nc2c1 (centres undefined)", "number": 34.3}
{"compound": "NC(N)=Nc1nc(CSCCC(N)=NS(N)(=O)=O)cs1", "number": 35.7}

Query: // lookup MCHC for CCOC(=O)CCC(=O)O[C@H]1[C@H](O[C@@H]2[C@@H](C)[C@H](O[C@H]3C[C@@](C)(OC)[C@@H](O)[C@H](C)O3)[C@@H](C)C(=O)O[C@H](CC)[C@@](C)(O)[C@H](O)[C@@H](C)C(=O)[C@H](C)C[C@@]2(C)O)O[C@H](C)C[C@@H]1N(C)C [ERYTHROMYCIN ETHYLSUCCINATE]
Response: 33

Query: Field entry: COC1=CC(=O)C[C@@H](C)[C@]12Oc1c(Cl)c(OC)cc(OC)c1C2=O
Response: 33.9

* * *

Species: Rattus norvegicus
method-summary: Open TG-GATES - Regimen: Daily Repeat
Assay type: toxicity, organism-based, Sprague-Dawley
Set-up: regimen Daily Repeat, gender Male, age 6 weeks
measurement-setup: in vivo, po, 300 mg/kg, […], tissue Plasma, route gavage, dose level Middle, time 14 day
measured-attribute: AST (IU/L)
Give the value in IU/L but do not write IU/L after it.

Below are worked cases with known answers.
{"compound": "NC(N)=Nc1nc(CSCCC(N)=NS(N)(=O)=O)cs1", "number": 66}
{"compound": "CCOC(=O)CCC(=O)O[C@H]1[C@H](O[C@@H]2[C@@H](C)[C@H](O[C@H]3C[C@@](C)(OC)[C@@H](O)[C@H](C)O3)[C@@H](C)C(=O)O[C@H](CC)[C@@](C)(O)[C@H](O)[C@@H](C)C(=O)[C@H](C)C[C@@]2(C)O)O[C@H](C)C[C@@H]1N(C)C [ERYTHROMYCIN ETHYLSUCCINATE]", "number": 70.2}
{"compound": "COc1ccc2[nH]c([S+]([O-])Cc3ncc(C)c(OC)c3C)nc2c1 (stereo not given)", "number": 62}
{"compound": "COC1=CC(=O)C[C@@H](C)[C@]12Oc1c(Cl)c(OC)cc(OC)c1C2=O", "number": 51.4}

Query: // lookup AST for CCOc1ccc(NC(=O)CC(C)O)cc1 (stereo not given)
Response: 63

* * *

Species on record: Rattus norvegicus
method-summary: Open TG-GATES - Regimen: Daily Repeat
Format: toxicity, organism-based, Sprague-Dawley
Design: regimen Daily Repeat, gender Male, age 6 weeks
measurement-setup: in vivo, po, 300 mg/kg, […], tissue Blood, route gavage, dose level Middle, time 28 day
Label T when WBC < 100 x10_2/uL; otherwise F.

Examples with answers:
{"compound": "CCOc1ccc(NC(=O)CC(C)O)cc1 (stereo not given)", "cat": "F"}
{"compound": "COC1=CC(=O)C[C@@H](C)[C@]12Oc1c(Cl)c(OC)cc(OC)c1C2=O", "cat": "F"}
{"compound": "NC(N)=Nc1nc(CSCCC(N)=NS(N)(=O)=O)cs1", "cat": "F"}

Query: Does COc1ccc2[nH]c([S+]([O-])Cc3ncc(C)c(OC)c3C)nc2c1 (stereo not given) have WBC strictly under 100 x10_2/uL?
Response: F

Query: Field entry: CCOC(=O)CCC(=O)O[C@H]1[C@H](O[C@@H]2[C@@H](C)[C@H](O[C@H]3C[C@@](C)(OC)[C@@H](O)[C@H](C)O3)[C@@H](C)C(=O)O[C@H](CC)[C@@](C)(O)[C@H](O)[C@@H](C)C(=O)[C@H](C)C[C@@]2(C)O)O[C@H](C)C[C@@H]1N(C)C [ERYTHROMYCIN ETHYLSUCCINATE]
Response: T

From: ChEMBL document CHEMBL3885861
